Data credit: patent US11007270B2

- system_tested: RET (Homo sapiens, UniProt P07949)
- Sequence (P07949 29-1114, species assumed): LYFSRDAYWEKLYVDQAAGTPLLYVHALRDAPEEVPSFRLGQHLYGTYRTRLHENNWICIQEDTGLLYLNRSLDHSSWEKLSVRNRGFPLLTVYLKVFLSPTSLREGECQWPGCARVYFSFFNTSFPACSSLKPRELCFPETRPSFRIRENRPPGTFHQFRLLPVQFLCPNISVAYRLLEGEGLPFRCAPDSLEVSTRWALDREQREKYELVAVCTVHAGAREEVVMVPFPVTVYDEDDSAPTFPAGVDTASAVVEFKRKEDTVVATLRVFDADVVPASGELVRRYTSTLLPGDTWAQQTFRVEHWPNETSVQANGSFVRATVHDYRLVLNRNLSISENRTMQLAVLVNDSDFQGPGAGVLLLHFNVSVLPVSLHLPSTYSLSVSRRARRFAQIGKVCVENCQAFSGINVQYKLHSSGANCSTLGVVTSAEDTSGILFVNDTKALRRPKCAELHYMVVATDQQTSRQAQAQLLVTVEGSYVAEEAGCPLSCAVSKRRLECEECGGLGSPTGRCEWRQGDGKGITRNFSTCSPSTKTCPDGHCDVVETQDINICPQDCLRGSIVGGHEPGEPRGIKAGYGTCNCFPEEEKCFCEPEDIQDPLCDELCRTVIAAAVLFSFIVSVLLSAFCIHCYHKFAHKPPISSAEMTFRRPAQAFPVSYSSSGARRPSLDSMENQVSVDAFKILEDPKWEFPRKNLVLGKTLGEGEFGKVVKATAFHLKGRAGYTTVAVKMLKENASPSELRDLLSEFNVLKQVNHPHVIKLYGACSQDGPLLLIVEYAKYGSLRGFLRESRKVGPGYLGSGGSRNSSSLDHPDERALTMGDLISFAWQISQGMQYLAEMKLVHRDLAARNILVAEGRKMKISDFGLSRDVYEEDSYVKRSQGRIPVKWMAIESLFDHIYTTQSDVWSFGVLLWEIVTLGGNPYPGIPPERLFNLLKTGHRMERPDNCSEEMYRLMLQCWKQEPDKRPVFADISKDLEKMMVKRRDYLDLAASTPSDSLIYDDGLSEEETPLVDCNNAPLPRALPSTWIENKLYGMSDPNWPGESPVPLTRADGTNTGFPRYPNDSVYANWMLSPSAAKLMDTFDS
- experiment: RET kinase inhibition, Caliper screening (fluorescent substrate phosphorylation, electrophoretic separation)
- condition: concentration 3.0E−06 (unit not given)
# maps each entry to its RET AVG % Activity at Specific Concentration
Lab book: enter the figure in %, no units written.

Use these answered entries as a reference point.
COCCOCCOCCNC(=O)c1c(C)[nH]c(/C=C2\C(=O)Nc3ccc(F)cc32)c1C    3
COCCOCCOCCOCCOCCOCCOCCOCCOCCNC(=O)c1c(C)[nH]c(/C=C2\C(=O)Nc3ccc(F)cc32)c1C    21
COCCOCCOCCOCCOCCOCCOCCNC(=O)c1c(C)[nH]c(/C=C2\C(=O)Nc3ccc(F)cc32)c1C    14
COCCOCCOCCOCCOCCOCCOCCOCCNC(=O)c1c(C)[nH]c(/C=C2\C(=O)Nc3ccc(F)cc32)c1C    20
COCCOCCOCCOCCNC(=O)c1c(C)[nH]c(/C=C2\C(=O)Nc3ccc(F)cc32)c1C    5

Provide the documented RET AVG % Activity at Specific Concentration with RET (Homo sapiens, UniProt P07949) as the system for COCCOCCOCCOCCOCCNC(=O)c1c(C)[nH]c(/C=C2\C(=O)Nc3ccc(F)cc32)c1C 6

====

# maps each entry to its RET AVG % Activity at Specific Concentration
- system_tested: RET (Homo sapiens)
- experiment: RET kinase inhibition, Caliper screening (fluorescent substrate phosphorylation, electrophoretic separation)
- condition: concentration 3.0E−10 (unit not given)
Lab book: enter the figure in %, no units written.

Use these answered entries as a reference point.
COCCOCCOCCOCCOCCOCCOCCNC(=O)c1c(C)[nH]c(/C=C2\C(=O)Nc3ccc(F)cc32)c1C [mPEG7-semaxanib]    98
COCCOCCOCCNC(=O)c1c(C)[nH]c(/C=C2\C(=O)Nc3ccc(F)cc32)c1C [mPEG3-semaxanib]    94
COCCOCCOCCOCCNC(=O)c1c(C)[nH]c(/C=C2\C(=O)Nc3ccc(F)cc32)c1C [mPEG4-semaxanib]    99
COCCOCCOCCOCCOCCNC(=O)c1c(C)[nH]c(/C=C2\C(=O)Nc3ccc(F)cc32)c1C [mPEG5-semaxanib]    99
COCCOCCOCCOCCOCCOCCOCCOCCNC(=O)c1c(C)[nH]c(/C=C2\C(=O)Nc3ccc(F)cc32)c1C [mPEG8-semaxanib]    99

Given the entry COCCOCCOCCOCCOCCOCCOCCOCCOCCNC(=O)c1c(C)[nH]c(/C=C2\C(=O)Nc3ccc(F)cc32)c1C [mPEG9-semaxanib] , report its measured RET AVG % Activity at Specific Concentration. 97

====

# maps each entry to its c-Kit AVG % Activity at Specific Concentration
- system_tested: c-Kit (Homo sapiens, UniProt P10721)
- Sequence (P10721 26-976): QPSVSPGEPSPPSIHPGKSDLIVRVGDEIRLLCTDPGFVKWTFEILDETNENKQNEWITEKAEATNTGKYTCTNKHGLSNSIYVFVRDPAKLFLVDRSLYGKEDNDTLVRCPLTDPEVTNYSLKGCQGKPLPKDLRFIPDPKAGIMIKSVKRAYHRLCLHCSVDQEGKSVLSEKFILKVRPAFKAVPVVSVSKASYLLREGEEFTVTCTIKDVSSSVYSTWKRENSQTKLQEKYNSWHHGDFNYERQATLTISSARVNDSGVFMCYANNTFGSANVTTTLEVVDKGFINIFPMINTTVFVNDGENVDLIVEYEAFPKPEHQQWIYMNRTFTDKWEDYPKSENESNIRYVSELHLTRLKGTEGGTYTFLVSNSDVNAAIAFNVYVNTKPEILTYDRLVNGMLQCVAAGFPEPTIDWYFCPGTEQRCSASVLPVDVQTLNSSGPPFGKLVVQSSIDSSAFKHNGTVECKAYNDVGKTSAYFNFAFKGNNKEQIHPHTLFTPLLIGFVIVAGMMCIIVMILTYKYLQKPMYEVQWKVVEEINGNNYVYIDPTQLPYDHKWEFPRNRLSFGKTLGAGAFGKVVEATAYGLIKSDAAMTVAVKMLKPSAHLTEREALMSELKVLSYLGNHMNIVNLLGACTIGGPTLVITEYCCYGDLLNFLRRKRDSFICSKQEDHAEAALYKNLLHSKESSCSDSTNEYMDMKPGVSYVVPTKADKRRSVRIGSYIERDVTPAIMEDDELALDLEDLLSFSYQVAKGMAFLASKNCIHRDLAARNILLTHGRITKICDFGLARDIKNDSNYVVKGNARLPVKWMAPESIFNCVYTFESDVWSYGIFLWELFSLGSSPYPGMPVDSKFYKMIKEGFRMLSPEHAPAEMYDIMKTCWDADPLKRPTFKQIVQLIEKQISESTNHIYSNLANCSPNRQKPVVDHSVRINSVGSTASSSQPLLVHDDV
- experiment: c-Kit tyrosine kinase inhibition, Caliper screening (fluorescent substrate phosphorylation, electrophoretic separation)
- Format: biochemical
- condition: concentration 3.0E−08 (unit not given)
Lab book: enter the figure in %, no units written.

Use these answered entries as a reference point.
COCCOCCOCCOCCOCCOCCOCCOCCOCCNC(=O)c1c(C)[nH]c(/C=C2\C(=O)Nc3ccc(F)cc32)c1C    100
COCCOCCOCCOCCOCCOCCOCCOCCNC(=O)c1c(C)[nH]c(/C=C2\C(=O)Nc3ccc(F)cc32)c1C    93
COCCOCCOCCOCCOCCOCCNC(=O)c1c(C)[nH]c(/C=C2\C(=O)Nc3ccc(F)cc32)c1C    95

Given the entry COCCOCCOCCNC(=O)c1c(C)[nH]c(/C=C2\C(=O)Nc3ccc(F)cc32)c1C , report its measured c-Kit AVG % Activity at Specific Concentration. 88

Given the entry COCCOCCOCCOCCOCCOCCOCCNC(=O)c1c(C)[nH]c(/C=C2\C(=O)Nc3ccc(F)cc32)c1C , report its measured c-Kit AVG % Activity at Specific Concentration. 96

Given the entry COCCOCCOCCOCCOCCNC(=O)c1c(C)[nH]c(/C=C2\C(=O)Nc3ccc(F)cc32)c1C , report its measured c-Kit AVG % Activity at Specific Concentration. 96

Given the entry COCCOCCOCCOCCNC(=O)c1c(C)[nH]c(/C=C2\C(=O)Nc3ccc(F)cc32)c1C , report its measured c-Kit AVG % Activity at Specific Concentration. 94

====

- system_tested: RET (Homo sapiens)
- experiment: RET kinase inhibition, Caliper screening (fluorescent substrate phosphorylation, electrophoretic separation)
- condition: concentration 3.0E−09 (unit not given)
parameter: RET AVG % Activity at Specific Concentration (%)
Lab book: enter the figure in %, no units written.

Use these answered entries as a reference point.
COCCOCCOCCOCCOCCOCCOCCOCCOCCNC(=O)c1c(C)[nH]c(/C=C2\C(=O)Nc3ccc(F)cc32)c1C    101
COCCOCCOCCOCCNC(=O)c1c(C)[nH]c(/C=C2\C(=O)Nc3ccc(F)cc32)c1C    100
COCCOCCOCCOCCOCCOCCOCCNC(=O)c1c(C)[nH]c(/C=C2\C(=O)Nc3ccc(F)cc32)c1C    99
COCCOCCOCCOCCOCCOCCOCCOCCNC(=O)c1c(C)[nH]c(/C=C2\C(=O)Nc3ccc(F)cc32)c1C    97
COCCOCCOCCNC(=O)c1c(C)[nH]c(/C=C2\C(=O)Nc3ccc(F)cc32)c1C    95

With those in mind, consider the next compound.
Given the entry COCCOCCOCCOCCOCCNC(=O)c1c(C)[nH]c(/C=C2\C(=O)Nc3ccc(F)cc32)c1C , report its measured RET AVG % Activity at Specific Concentration. 102

====

# maps each entry to its VEGFR-2 AVG % Activity at Specific Concentration
- system_tested: VEGFR-2 (Homo sapiens, UniProt P35968)
- Sequence (P35968 20-1356, species assumed): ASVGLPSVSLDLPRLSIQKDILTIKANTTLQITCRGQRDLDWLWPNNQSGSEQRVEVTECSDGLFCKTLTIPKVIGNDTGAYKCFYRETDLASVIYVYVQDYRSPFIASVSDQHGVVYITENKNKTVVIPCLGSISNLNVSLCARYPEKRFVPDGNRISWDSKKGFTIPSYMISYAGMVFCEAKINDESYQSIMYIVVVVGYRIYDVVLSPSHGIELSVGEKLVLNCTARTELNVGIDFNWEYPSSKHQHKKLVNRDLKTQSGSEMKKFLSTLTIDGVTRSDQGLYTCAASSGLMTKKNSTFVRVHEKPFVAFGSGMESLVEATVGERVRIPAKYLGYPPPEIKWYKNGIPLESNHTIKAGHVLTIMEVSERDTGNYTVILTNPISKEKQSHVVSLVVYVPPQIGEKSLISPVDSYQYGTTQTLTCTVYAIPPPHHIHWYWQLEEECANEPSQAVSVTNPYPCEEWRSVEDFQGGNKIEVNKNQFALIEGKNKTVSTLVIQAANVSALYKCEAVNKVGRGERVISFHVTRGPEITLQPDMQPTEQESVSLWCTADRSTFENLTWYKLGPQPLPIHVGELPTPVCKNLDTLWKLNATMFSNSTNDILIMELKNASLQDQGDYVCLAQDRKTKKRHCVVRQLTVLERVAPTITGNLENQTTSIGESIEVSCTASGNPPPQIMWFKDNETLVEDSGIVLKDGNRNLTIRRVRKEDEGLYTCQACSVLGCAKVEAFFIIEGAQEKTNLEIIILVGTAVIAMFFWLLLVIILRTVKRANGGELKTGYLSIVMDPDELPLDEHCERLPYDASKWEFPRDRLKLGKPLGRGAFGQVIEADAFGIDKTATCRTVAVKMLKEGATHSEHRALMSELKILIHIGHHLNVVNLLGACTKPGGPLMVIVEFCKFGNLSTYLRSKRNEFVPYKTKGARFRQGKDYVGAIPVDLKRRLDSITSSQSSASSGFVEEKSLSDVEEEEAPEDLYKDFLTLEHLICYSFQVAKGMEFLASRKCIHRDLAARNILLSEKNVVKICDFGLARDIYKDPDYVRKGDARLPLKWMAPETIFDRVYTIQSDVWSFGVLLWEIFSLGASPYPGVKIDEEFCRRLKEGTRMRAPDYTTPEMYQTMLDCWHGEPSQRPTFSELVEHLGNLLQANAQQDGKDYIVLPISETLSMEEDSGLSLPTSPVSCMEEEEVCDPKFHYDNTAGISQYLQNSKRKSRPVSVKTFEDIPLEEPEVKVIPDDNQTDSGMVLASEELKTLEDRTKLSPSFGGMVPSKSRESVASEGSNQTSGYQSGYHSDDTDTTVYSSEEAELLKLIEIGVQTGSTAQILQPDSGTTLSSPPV
- experiment: VEGFR-2 kinase inhibition, Caliper screening (fluorescent substrate phosphorylation, electrophoretic separation)
- condition: concentration 1.0E−05 (unit not given)
Lab book: enter the figure in %, no units written.

Use these answered entries as a reference point.
COCCOCCOCCOCCOCCOCCOCCOCCNC(=O)c1c(C)[nH]c(/C=C2\C(=O)Nc3ccc(F)cc32)c1C    −3
COCCOCCOCCOCCOCCOCCOCCNC(=O)c1c(C)[nH]c(/C=C2\C(=O)Nc3ccc(F)cc32)c1C    −3
COCCOCCOCCOCCOCCOCCOCCOCCOCCNC(=O)c1c(C)[nH]c(/C=C2\C(=O)Nc3ccc(F)cc32)c1C    1
COCCOCCOCCNC(=O)c1c(C)[nH]c(/C=C2\C(=O)Nc3ccc(F)cc32)c1C    −3

With those in mind, consider the next compound.
Given the entry COCCOCCOCCOCCNC(=O)c1c(C)[nH]c(/C=C2\C(=O)Nc3ccc(F)cc32)c1C , report its measured VEGFR-2 AVG % Activity at Specific Concentration. −4

====

- system_tested: RET (Homo sapiens, UniProt P07949)
- experiment: RET kinase inhibition, Caliper screening (fluorescent substrate phosphorylation, electrophoretic separation)
- condition: concentration 1.0E−08 (unit not given)
# maps each entry to its RET AVG % Activity at Specific Concentration
Lab book: enter the figure in %, no units written.

Use these answered entries as a reference point.
COCCOCCOCCOCCOCCOCCOCCNC(=O)c1c(C)[nH]c(/C=C2\C(=O)Nc3ccc(F)cc32)c1C [mPEG7-semaxanib]    98
COCCOCCOCCOCCOCCOCCOCCOCCNC(=O)c1c(C)[nH]c(/C=C2\C(=O)Nc3ccc(F)cc32)c1C [mPEG8-semaxanib]    100
COCCOCCOCCNC(=O)c1c(C)[nH]c(/C=C2\C(=O)Nc3ccc(F)cc32)c1C [mPEG3-semaxanib]    96
COCCOCCOCCOCCNC(=O)c1c(C)[nH]c(/C=C2\C(=O)Nc3ccc(F)cc32)c1C [mPEG4-semaxanib]    99
COCCOCCOCCOCCOCCOCCOCCOCCOCCNC(=O)c1c(C)[nH]c(/C=C2\C(=O)Nc3ccc(F)cc32)c1C [mPEG9-semaxanib]    105

Given the entry COCCOCCOCCOCCOCCNC(=O)c1c(C)[nH]c(/C=C2\C(=O)Nc3ccc(F)cc32)c1C [mPEG5-semaxanib] , report its measured RET AVG % Activity at Specific Concentration. 99

====

- system_tested: c-Kit (Homo sapiens, UniProt P10721)
- experiment: c-Kit tyrosine kinase inhibition, Caliper screening (fluorescent substrate phosphorylation, electrophoretic separation)
- Assay type: biochemical
- condition: concentration 1.0E−09 (unit not given)
# maps each entry to its c-Kit AVG % Activity at Specific Concentration
Lab book: enter the figure in %, no units written.

COCCOCCOCCOCCOCCOCCOCCOCCOCCNC(=O)c1c(C)[nH]c(/C=C2\C(=O)Nc3ccc(F)cc32)c1C [mPEG9-semaxanib]    105
COCCOCCOCCOCCOCCOCCOCCOCCNC(=O)c1c(C)[nH]c(/C=C2\C(=O)Nc3ccc(F)cc32)c1C [mPEG8-semaxanib]    98

Given the entry COCCOCCOCCNC(=O)c1c(C)[nH]c(/C=C2\C(=O)Nc3ccc(F)cc32)c1C [mPEG3-semaxanib] , report its measured c-Kit AVG % Activity at Specific Concentration. 104
